Test system: UO-31 renal
runDescription: NCI tumour cell line growth inhibition, 48 h
outcomeMeasure: TGI

> print(dat)
                                    molecule    result
 1  Cn1c2ccccc2c2c(=O)n(CCCC(=O)NCC(=O)OC(=NC3CCCCC3)NC3CCCCC3)c3c(-c4ccccc4)nnn3c21  > 100 µM
 2  COC(=O)c1c2c(c(C)[n+]([O-])c1C)C(=O)C=C(NCc1ccc(Cl)cc1)C2=O   2.66 µM
 3  CCOC(=O)C1CCC/C1=N\N=C(N)N (centres undefined) (tested in a mixture with another compound)  > 100 µM
 4  O=c1nc2n(CCO)c(-c3ccccc3)c(-c3ccccc3)nc-2c(=O)[nH]1  > 100 µM
 5                       C1=CCN(c2ccccc2)CC1  > 100 µM
 6      Cc1cccc(C(C)O)n1 (centres undefined)  > 100 µM
 7              CSc1nc(=S)[nH]c2n[nH]c(C)c12  > 100 µM
 8  CCN(CC)c1ccc(/C=N/NC(=O)c2ccc(Nc3ccnc(C(F)(F)F)c3)cc2)c(O)c1   1.91 µM
 9      CSC1=N/C(=C\c2cccs2)C(=O)N1CN1CCCCC1  > 100 µM
10  Cc1cccc2c3c(sc12)C(c1ccc(Cl)cc1)C(C#N)=C(/N=C/c1ccc(Cl)cc1)O3 (centres undefined)  > 100 µM
11  O=C(CCN(CCO)CCO)Nc1ccc2c(c1)C(=O)c1ccc(NC(=O)CCN(CCO)CCO)cc1C2=O   22.1 µM
12  Cc1ccc2c(c1)C(C1Cc3c(C)cccc3C1=O)OC2=O (centres undefined)  > 100 µM
13  Oc1cn(-c2ccc(Cl)cc2)nc1-c1nnc(Nc2ccccc2)o1   46.1 µM
14  COc1cc2c(/C=C3/C(=O)Nc4ccccc43)c(Cl)n(Cc3ccccc3)c2cc1C  > 100 µM
15                     Cc1cc2c(cn1)C(=O)OCC2  > 100 µM
16      CN(CCO)CC(=O)CC(O)(C(F)(F)F)C(F)(F)F  > 100 µM
17    CCOc1ccc(NCC(=O)N2CC(=O)Nc3ccccc32)cc1  > 100 µM
18  N#C/C(=C\c1cn(-c2ccccc2)c2ccccc12)C(=O)O  > 100 µM
19  CC[C@@]1(O)C(=O)OCc2c1c(Cl)c1n(c2=O)Cc2cc3ccccc3nc2-1   9.22 µM

---

Tested on: NCI-H23 lung
runDescription: NCI tumour cell line growth inhibition, 48 h
outcomeMeasure: GI50

> print(dat)
                                    molecule    result
 1  C[C@]12CC[C@H]3[C@@H](CC=C4C[C@@H](O)CC[C@@]43C)[C@@H]1C/C(=C\c1cccc(OCCN3CCOCC3)c1)[C@@H]2O   48.5 µM
 2  COC(=O)/C=C/c1cc(OC)c2c(c1)C(C(=O)OC)C(c1ccc(OC)c(OC)c1)O2 (stereo not given)  > 100 µM
 3  COC(=O)Nc1ccc2ccc3c(NC(=O)OC)ccc4ccc1c2c43 (tested in a mixture with another compound)   11.5 µM
 4  CCCCCCN1C(=O)/C(=c2\sc3n(c2=O)C2C(NN=3)N(CC)C(=O)N2CC)c2ccccc21 (stereo not given)   2.05 µM
 5   C#Cc1cccc(NC(=O)Nc2ccc(NC(=O)CCl)cc2)c1   15.4 µM
 6  c1ccc(-c2nc(Nc3ccc(-c4nc5ccccc5[nH]4)cc3)nc(N3CCOCC3)n2)cc1   2.07 µM
 7  [N-]=[N+]=Nc1ncc(-c2ccc(C(F)(F)F)cc2)c(NC2CCCCCC2)n1   > 10 µM
 8  N#Cc1nc(-c2cccc(Br)c2)cc(-c2ccc(Nc3nc(N4CCCCC4)nc(N4CCCCC4)n3)cc2)c1N   2.39 µM
 9  Cc1cccc2c3c(sc12)C(c1ccc(Cl)cc1)C(C#N)=C(/N=C/c1ccc(Cl)cc1)O3 (stereo not given)  0.446 µM
10  COc1ccc(NC2=C(Sc3nc(C)cc(C)n3)C(=O)N(Cc3ccccc3)C2=O)cc1Cl  > 160 µM
11  Cn1c2ccccc2c2c(=O)n(CCCC(=O)NCC(=O)OC(=NC3CCCCC3)NC3CCCCC3)c3c(-c4ccccc4)nnn3c21   15.6 µM
12  Clc1cc(Cl)cc(N2N=C(c3cccc(Nc4ccncc4)c3)CC2c2ccccc2)c1 (stereo not given)   1.81 µM
13  COc1ccc(/C=C/C(=O)c2ccc(Nc3ncnc4ccccc34)cc2)cc1OC   4.69 µM
14   O=C(Nc1ccccc1Cl)c1cnc2ccc(C3CCNCC3)cn12   74.5 µM
15  COc1cc2c(/C=C3/C(=O)Nc4ccccc43)c(Cl)n(Cc3ccccc3)c2cc1C  > 100 µM

---

Test system: IGROV1 ovarian
runDescription: NCI tumour cell line growth inhibition, 48 h
Measured TGI, listed per entry.
outcomeMeasure: TGI

> print(dat)
                                    compound  outcomemeasure    result
 1             C/C(C=O)=N\Nc1cc(C)c2ccccc2n1             TGI   32.1 µM
 2  COc1ccc(NS(=O)CCc2ccccc2)cc1 (configuration not stated)             TGI  > 100 µM
 3  COC(=O)/C=C/c1cc(OC)c2c(c1)C(C(=O)OC)C(c1ccc(OC)c(OC)c1)O2 (configuration not stated)             TGI  > 100 µM
 4  COc1nccc(-c2c(-c3ccc(F)cc3)ncn2C2CCC(O)CC2)n1 (configuration not stated)             TGI  > 100 µM
 5       CCc1ccccc1NC(=O)CCc1nc(=S)[nH][nH]1             TGI  > 100 µM
 6      CN(CCO)CC(=O)CC(O)(C(F)(F)F)C(F)(F)F             TGI  > 100 µM
 7  O=C(O)C(/C=C/c1ccco1)=N\Nc1nc(-c2ccc(Cl)cc2)cs1             TGI   29.6 µM
 8  Cc1ccc(NC(=O)c2ccnc(C(F)(F)F)c2)cc1-c1cc(OCCO)nc(N2CCOCC2)c1             TGI     40 µM
 9  COc1ccc(CCN2CCC(C#N)(c3ccc(OC)c(OC)c3)CC2)cc1OC             TGI  > 100 µM
10      Cc1nc2ccccc2nc1NS(=O)(=O)c1ccc(N)cc1             TGI  > 100 µM
11  CN(C)c1cccc2[nH]c(-c3[nH]ncc3Nc3ccnc(N)n3)nc12             TGI  0.346 µM
12  CC1C2CC(C(C3C(=O)C4CC3C(C)(C)C4C)C2=O)C1(C)C (configuration not stated)             TGI  > 100 µM
13   O=C(Nc1ccccc1Cl)c1cnc2ccc(C3CCNCC3)cn12             TGI   14.6 µM
14  O=C1C(NCCO)=C(N2CC2)C(=O)C(NCCO)=C1N1CC1             TGI  > 100 µM
15             Cc1ccc2sc3cc(=O)cc(C)c-3nc2c1             TGI  > 100 µM
16  CC1=NC(=Cc2ccc(Cl)cc2)C(=O)N1n1c(-c2ccccc2)nc2ccccc2c1=O             TGI  > 100 µM
17  Clc1cc(Cl)cc(N2N=C(c3cccc(Nc4ccncc4)c3)CC2c2ccccc2)c1 (configuration not stated)             TGI   3.04 µM
18            C/C(=N\NC(N)=S)c1ccc2c(c1)OCO2             TGI  > 100 µM
19  COc1cc(C2c3cccc4cccc(c34)C3CCC(=O)N32)cc(O)c1O (configuration not stated)             TGI   > 50 µM
20  FC(F)(F)c1ccc2c(c1)N(CCCN1CCN(C3CC3)CC1)c1ccccc1S2             TGI   28.3 µM
21  COc1c(O)cc(/C=C/c2cc(O)cc3c2[C@@]2(C(=O)O3)c3c(O)cc(O)cc3OC2c2cccc(O)c2)cc1O (some centres not stated)             TGI  > 100 µM
22  COc1ccc(-c2ccc(/C=N/n3cn[nH]c3=S)o2)c([N+](=O)[O-])c1             TGI  > 100 µM

---

System: NCI-H522 lung
runDescription: NCI tumour cell line growth inhibition, 48 h; in the data active means GI50 below about 0.43 µM; inactive means the rest
Labels: Y (active), N (inactive)

> print(dat)
                                    compound  classname
 1  CC[C@@]1(O)C(=O)NCc2c1cc1n(c2=O)Cc2cc3cc4c(cc3nc2-1)OCO4          N
 2  COC(=O)Nc1ccc2ccc3c(NC(=O)OC)ccc4ccc1c2c43 (tested in a mixture with another compound)          N
 3        Cc1sc2ncnc(Sc3nc4ccccc4[nH]3)c2c1C          N
 4  O=C(CNC(=O)c1cccc2ccccc12)Nc1ccccc1Oc1cccc(O)c1          N
 5  Clc1nc(Cl)c2ncn(C/C=C\Cn3cnc4c(Cl)nc(Cl)nc43)c2n1          N
 6  CC(C)(C)Cn1c(N)nc2ccc(-c3[nH]c(C(C)(C)C)nc3-c3ccc(F)cc3)nc21          N
 7   O=C(Nc1ccccc1Cl)c1cnc2ccc(C3CCNCC3)cn12          N
 8  FC(F)(F)c1ccc2c(c1)N(CCCN1CCN(C3CC3)CC1)c1ccccc1S2          N
 9   C#Cc1cccc(NC(=O)Nc2ccc(NC(=O)CCl)cc2)c1          N
10  Cc1ccc(NC(=O)c2ccnc(C(F)(F)F)c2)cc1-c1cc(OCCO)nc(N2CCOCC2)c1          N
11  CCN(CC)c1ccc(/C=N/NC(=O)c2ccc(Nc3ccnc(C(F)(F)F)c3)cc2)c(O)c1          Y

Values were extracted from PubChem BioAssay (NCI).
